# EXPERIMENTAL DETAILS: NCI Yeast Anticancer Drug Screen. Data for the mlh1 rad18 strain (AID 175)
# CONDITION LABEL: S. cerevisiae mlh1 rad18 strain growth inhibition; at 5.0 µM (retest, dose inferred, filed as 0.5)
The panel holds about 79,000 compounds, 15% with a hit somewhere; the sample as a whole holds those more often. Activity calls are given as the source filed them. Rule as the data show it: active = growth inhibition above about 70%; inactive = the rest.
Entry note: the call must match one of 1.0 (active), 0.0 (inactive)

Q: Please let me know the test result on file for COc1ccc(OC(=O)c2ccccc2)c2c1C(=O)C=CC2=O .
Ans: 0.0

Q: Assay outcome for CC(C)N(C(=O)C12C3C4C5(C#N)C3C1(C#N)C5C42I)C(C)C (centres undefined) : what was it?
Ans: 0.0

Q: Given C[N+]1(C)CCCC(OCCCCCCCCCCCCCCOC2CCC[N+](C)(C)C2)C1 (centres undefined) , state the outcome it received in this test.
Ans: 1.0

Q: Dear colleague, could you share the recorded outcome for CN1CCCC(C(=O)OCC(=O)C2(O)CCC3C4CCC5=CC(=O)CCC5(C)C4C(O)CC32C)C1 (centres undefined) when you have a moment?
Ans: 0.0

Q: In this assay, the call recorded for Clc1ccc(C2=NCON=C2c2ccc(Cl)cc2)cc1 was what?
Ans: 0.0

Q: What classification did O=C1OC(OC/C(Br)=C(/Br)COC2OC(=O)C(Cl)=C2Cl)C(Cl)=C1Cl (centres undefined) end up with in this test?
Ans: 1.0

Q: Recorded test call requested for COCCn1cc(F)c(=O)[nH]c1=O
Ans: 0.0

Q: For CCOC(=O)C[n+]1c(C)sc2ccccc21 , which call appears in the assay record?
Ans: 0.0

Q: Recorded call for C/C(=N/NC(=S)Nc1ccc(C)cc1)c1ccccn1 ?
Ans: 0.0

Q: What was the test verdict on Clc1c(Cl)c(Cl)c(SC2C3CC4C(C3)C42)c(Cl)c1Cl (centres undefined) ?
Ans: 0.0

----------
# EXPERIMENTAL DETAILS: NCI Yeast Anticancer Drug Screen. Data for the cln2 rad14 strain (AID 165);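 also: 0% = growth equal to vehicle treated cultures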
# CONDITION LABEL: S. cerevisiae cln2 rad14 strain, at 5.0 µM (retest, dose inferred, filed as 0.5), hits give high values
This is part of a sample that, as a whole, favours compounds with a hit. Of some 79,000 tested, about 15% had one in any assay.
MEASUREMENT TYPE: growth inhibition (%)
Just the number please, in %, no unit attached.

COMPOUND | QUANTITATIVE READOUT
C=C1CC2(CCS(=O)(=O)c3ccccc32)OC1=O (stereo not drawn) | 6
CC(C)N(C(=O)C12C3C4C5(C#N)C3C1(C#N)C5C42I)C(C)C (stereo not drawn) | 12

Q: Given O=C(O)/C=C/c1ccc2c(c1)CCCC2 , state its recorded growth inhibition.
Ans: -28

----------
# EXPERIMENTAL DETAILS: NCI Yeast Anticancer Drug Screen. Data for the rad50 strain (AID 155);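 also: 0% = growth of vehicle-only cultures of the same strain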
# CONDITION LABEL: S. cerevisiae rad50 strain growth inhibition; at 50.0 µM (retest, dose inferred, filed as 5.0)
The panel holds about 79,000 compounds, 15% with a hit somewhere; the sample as a whole holds those more often. Calls of active or inactive are those of the source. Cut-off read from the data, not from the text of the source: active = growth inhibition above about 70%; inactive = the rest.
Respond using exactly one of the listed classes: 1.0 = active, 0.0 = inactive

COMPOUND | ANSWER LABEL
O=C1/C(=C\c2ccccc2)CN(C(=O)CCN2CCCCC2)C/C1=C/c1ccccc1 | 1.0
CC(CO)CCC(=O)C(C)C1C(=O)CC2CC3CC(O)CCC3(C)CC21C (stereo not given) | 0.0
CC1([N+](=O)[O-])C(=O)C2(N3CCCCC3)CCCC2C1c1ccccc1 (stereo not given) | 0.0

Q: # fetch the recorded call for O=C(Nc1ccc(-c2cn3ccccc3n2)cc1)c1cc(Br)ccc1O here
Ans: 0.0

Q: Which outcome was assigned to CN(C)C(=S)Oc1ccc(C(C)(C)C)cc1 in this test?
Ans: 0.0

Q: // param item: COc1ccc(C2=NN(c3ccccc3)C[N+](c3ccc(C)cc3)=N2)cc1 ; yields the recorded call
Ans: 1.0

Q: Call for entry CSCCOC(=O)c1cc(NC(=S)c2ccoc2C)ccc1Cl :
Ans: 1.0

Q: Would you mind telling me which call this test gave Cc1cc(N)c2cc(NC(=O)Nc3ccc4nc(C)cc(N)c4c3)ccc2n1 ?
Ans: 1.0

Q: Record request — test call for CC12CCC3c4cc(O)ccc4CCC3C1CCC2O (stereo not given)
Ans: 0.0

Q: So what was the verdict on C[C@]12C[C@@H](c3ccccc3)Nc3ccccc3N1C(c1ccccc1)=NO2 in this test?
Ans: 0.0
